- TARGET OF ASSAY: HLA A*3201 (Homo sapiens, UniProt P04439, A270S/D101S/D185E/E176V/E277Q/F133L/G103R/G107R/G231S/H175R/I121M/I218V/I322F/K168Q/L105A/L300P/L318F/M331R/P208A/P217A/Q94H/R106L/R138Q/S129P/T104I/T323A/T345S/V100E/V321M/V358M)
- ASSAY OVERVIEW: biochemical
Where a SMILES comes first, the peptide text is derived from it.
I'd appreciate it if you could supply pIC50 values for the items below.
One number for each entry, as −log10 of the molar value.

MOLECULE	pIC50
CC[C@H](C)[C@H](NC(=O)[C@H](CO)NC(=O)[C@H](CC(C)C)NC(=O)[C@@H](NC(=O)[C@H](CO)NC(=O)[C@H](C)NC(=O)[C@H](CC(C)C)NC(=O)[C@@H](NC(=O)[C@@H](N)CCC(N)=O)[C@@H](C)CC)[C@@H](C)CC)C(=O)O [3102.0474] (H-QILASILSI-OH)	7.66

List the reported pIC50 of each molecule below.
1. CC[C@H](C)[C@H](N)C(=O)N[C@H](C(=O)N[C@@H](CC(C)C)C(=O)N[C@@H](Cc1c[nH]cn1)C(=O)N[C@@H](CC(C)C)C(=O)N[C@@H](C)C(=O)N[C@@H](CS)C(=O)NCC(=O)N[C@@H](Cc1ccccc1)C(=O)O)[C@@H](C)O [3102.0338] (H-ITLHLACGF-OH)
2. CC[C@H](C)[C@H](NC(=O)[C@H](CO)NC(=O)[C@@H](NC(=O)[C@@H](NC(=O)[C@H](Cc1c[nH]c2ccccc12)NC(=O)[C@H](CCCCN)NC(=O)[C@H](CCSC)NC(=O)[C@H](CCSC)NC(=O)[C@@H](N)CCSC)[C@@H](C)CC)[C@@H](C)CC)C(=O)O [3102.0357] (H-MMMKWIISI-OH)
3. CC[C@H](C)[C@H](NC(=O)[C@H](CO)NC(=O)[C@H](CCSC)NC(=O)[C@H](CC(C)C)NC(=O)[C@@H](N)CCCNC(=N)N)C(=O)N[C@@H](CC(N)=O)C(=O)N[C@@H](CCCNC(=N)N)C(=O)NCC(=O)N[C@@H](Cc1ccccc1)C(=O)O [3102.0465] (H-RLMSINRGF-OH)
4. CC[C@H](C)[C@H](N)C(=O)N[C@@H](CC(C)C)C(=O)N[C@H](C(=O)N[C@H](C(=O)N[C@@H](Cc1ccccc1)C(=O)N[C@H](C(=O)N[C@H](C(=O)N[C@@H](C)C(=O)N[C@H](C(=O)O)[C@@H](C)CC)C(C)C)[C@@H](C)O)[C@@H](C)CC)C(C)C [3102.0411] (H-ILVIFTVAI-OH)
5. CSCC[C@H](NC(=O)[C@@H](N)CCCCN)C(=O)N[C@@H](CC(=O)O)C(=O)N[C@@H](CC(N)=O)C(=O)NCC(=O)N[C@H](C(=O)N[C@@H](CC(C)C)C(=O)N[C@@H](CCC(=O)O)C(=O)N[C@@H](Cc1ccccc1)C(=O)O)[C@@H](C)O [3102.0365] (H-KMDNGTLEF-OH)

[8.85, 9.77, 8.52, 7.82, 9.04]

If you can, please state the reported pIC50 value of CC[C@H](C)[C@H](NC(=O)[C@H](Cc1ccc(O)cc1)NC(=O)[C@@H](NC(=O)[C@@H](NC(=O)[C@@H](NC(=O)[C@H](CCSC)NC(=O)[C@@H](NC(=O)[C@@H](N)CCCCN)[C@@H](C)O)[C@@H](C)O)[C@@H](C)O)C(C)C)C(=O)N[C@@H](CC(C)C)C(=O)O [3102.0466] (H-KTMTTVYIL-OH) .
7.85
